System: SN12C renal
Assay: NCI-60 one-dose screen, 48 h (100 = growth as untreated, 0 = no growth, -100 = all killed)
Conditions: 10 µM unless noted
Compounds without any hit were thinned out: in the full panel of roughly 83,000, 20% have a hit.
READOUT NAME: growth (%)
Give your result in % as a bare value.

Some solved cases for reference:
{"COMPOUND": "O=C(/C=C/c1ccco1)c1ccc(Nc2nc(Nc3ccc(F)cc3)nc(Nc3ccc(Cl)cc3)n2)cc1", "SUBJECT OF TEST": "SN12C renal", "growth [%]": 81.1}
{"COMPOUND": "COc1ccc(C2CC(c3cccc(OC)c3)=NN2C(=O)c2cc(OC)c(OC)c(OC)c2)cc1 (centres undefined)", "SUBJECT OF TEST": "SN12C renal", "growth [%]": 39.6}
{"COMPOUND": "CCCCCCCCCCCCCCCCCC1=NCCN1CCOC1=C(Cl)C(=O)c2ccccc2C1=O", "SUBJECT OF TEST": "SN12C renal", "growth [%]": 78.9}

Let's switch to this compound now.
-- ask Please give measured growth of the following entry: Cc1ccccc1NC(=O)N/C(N)=N/c1nc(C)c(C)s1
-- reply 39.7

----------
Test system: ACHN renal
Assay: NCI-60 one-dose screen, 48 h
Details: 10 µM unless noted
About 83,000 compounds went through this panel and 20% of them were active in at least one assay; those are over-represented in the sample as a whole. Active and inactive are the calls of the source. How the source made its calls: active means growth percent below 10; inactive means the rest.
Bench note: report the call from YES (active), NO (inactive)

For orientation, consider the following solved cases.
{"COMPOUND": "O=S(=O)(O)c1ccc(N/N=C/c2ccccc2Cl)cc1", "SUBJECT OF TEST": "ACHN renal", "LABEL CLASS": "NO"}
{"COMPOUND": "Cc1ccc(Nc2nc(N)nc(CSCC(=O)NN)n2)cc1", "SUBJECT OF TEST": "ACHN renal", "LABEL CLASS": "NO"}
{"COMPOUND": "C(=N\\Nc1ncc(-c2cc3cc4c(cc3o2)OCO4)s1)/c1ccco1", "SUBJECT OF TEST": "ACHN renal", "LABEL CLASS": "NO"}
{"COMPOUND": "CCOC(CN=Cc1cc(C)c2[nH]c3ccccc3c2c1C)OCC", "SUBJECT OF TEST": "ACHN renal", "LABEL CLASS": "NO"}
{"COMPOUND": "Cc1ccc(CCC(=O)Nc2ncc(Cc3cc(Cl)ccc3Cl)s2)o1", "SUBJECT OF TEST": "ACHN renal", "LABEL CLASS": "NO"}
{"COMPOUND": "C=C(C)[C@@H]1CC=C2c3sc(-c4ccc(C)cc4)nc3C[C@@H](C)[C@]2(C)C1", "SUBJECT OF TEST": "ACHN renal", "LABEL CLASS": "NO"}
{"COMPOUND": "NC(=S)Nc1cccc(O)c1", "SUBJECT OF TEST": "ACHN renal", "LABEL CLASS": "NO"}
{"COMPOUND": "CC1(C)OC2C(CO[Si](C)(C)C(C)(C)C)OC(n3c(I)c(C#C[Si](C)(C)C)c(=O)[nH]c3=O)C2O1 (configuration not stated)", "SUBJECT OF TEST": "ACHN renal", "LABEL CLASS": "NO"}
{"COMPOUND": "N=C1CCC(=N)c2c1c(O)c1ccccc1c2O", "SUBJECT OF TEST": "ACHN renal", "LABEL CLASS": "NO"}
{"COMPOUND": "O=C1/C(=C\\c2cccnc2)SC(=S)N1CCc1ccc(O)cc1", "SUBJECT OF TEST": "ACHN renal", "LABEL CLASS": "NO"}

-- ask Identify the outcome logged in this assay for the compound shown: O=C(CCCCCCN1CC(=O)N2[C@@H](c3ccccc3Cl)c3[nH]c4ccccc4c3C[C@H]2C1=O)NO
-- reply NO

-- ask Identify the outcome logged in this assay for the compound shown: CCCCCCCCCOc1c(OC)cc(C2CC(=O)Nc3c2c(C)nn3-c2nc3ccccc3[nH]2)cc1OC (configuration not stated)
-- reply YES

-- ask Identify the outcome logged in this assay for the compound shown: FC(F)(F)c1cc(Nc2ccc3cc(OCCCN4CCOCC4)ccc3n2)ccc1Cl
-- reply NO

-- ask Identify the outcome logged in this assay for the compound shown: O=C(NCCCNc1cc(-c2cn(-c3ccccc3)nc2-c2cccc(O)c2)ccn1)c1ccccc1
-- reply NO
